The origin of these recorded values is patent US10954217B2.

molecular target: 5-HT2C (Homo sapiens (Human))
pKi: −log10 of the molar value.

{"Entry Smiles": "CN1CCN(c2ccc3c(c2)CN(S(=O)(=O)c2cc(Cl)cc(Cl)c2)C3)CC1", "pKi": 6.08}

----------
target: Alpha2A (Homo sapiens (Human))
pKi: −log10 of the molar value.

{"Entry Smiles": "Clc1cc(Cl)cc(CN2Cc3ccc(N4CCOCC4)cc3C2)c1", "pKi": 5.63}

----------
target: UniProt P18825

{"Entry Smiles": "Clc1cc(Cl)cc(CN2Cc3ccc(N4CCOCC4)cc3C2)c1", "Ki (µM)": 4.54}

----------
Ki reference
target: H1 (Homo sapiens (Human), UniProt P35367)

{"Entry Smiles": "C=CCN1CCN(c2ccc3c(c2)CN(S(=O)(=O)c2cc(Cl)cc(Cl)c2)CC3)CC1", "System Tested": "H1 (Homo sapiens (Human), UniProt P35367)", "Ki": "241 nM"}
{"Entry Smiles": "CN1CCN(c2ccc3c(c2)CN(S(=O)(=O)c2cc(Cl)cc(Cl)c2)CC3)CC1", "System Tested": "H1 (Homo sapiens (Human), UniProt P35367)", "Ki": "4780 nM"}

----------
target: KOR (Homo sapiens (Human), UniProt P41145)

{"Entry Smiles": "CN1CCN(c2ccc3c(c2)CN(S(=O)(=O)c2cc(Cl)cc(Cl)c2)C3)CC1", "Ki / µM": 8.49}

----------
Ki reference
target: M5 (Homo sapiens (Human), UniProt P08912)
Readout Name: Ki (nM)

{"Entry Smiles": "CN1CCN(c2ccc3c(c2)CN(S(=O)(=O)c2cc(Cl)cc(Cl)c2)CC3)CC1", "Readout Name": "Ki", "Result Unit": "nM", "Number": 2320}
{"Entry Smiles": "CN1CCN(c2ccc3c(c2)CN(S(=O)(=O)c2cc(Cl)cc(Cl)c2)C3)CC1", "Readout Name": "Ki", "Result Unit": "nM", "Number": 2090}

----------
Ki reference
target: M4 (Homo sapiens (Human))

{"Entry Smiles": "CN1CCN(c2ccc3c(c2)CN(S(=O)(=O)c2cc(Cl)cc(Cl)c2)CC3)CC1", "Ki, µM": 2.28}
{"Entry Smiles": "CN1CCN(c2ccc3c(c2)CN(S(=O)(=O)c2cc(Cl)cc(Cl)c2)C3)CC1", "Ki, µM": 3.51}
